- Read-out: Urokinase-type plasminogen activator receptor (uPAR), PLAUR (gene 5329)
- protocol: BSK_CASM3C_uPAR: BioMAP Diversity Plus: CASM3C Assay for Urokinase-type plasminogen activator receptor (uPAR) Biomarker Activity (AID 2283054);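 note: cell-surface uPAR protein level quantified by ELISA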
- conditions.used: primary human coronary artery smooth muscle cells; actives raise or lower the signal
Calls of active or inactive are those of the source. Rule for the calls: active = hit-call score of the fitted dose curve at least 0.9, where 1 is the maximum; inactive = score below 0.9.
property: AC50

{"molecule": "CCCCCCCCN(C)CCCCCCCC", "AC50": "inactive"}
{"molecule": "c1ccc2ccccc2c1", "AC50": "inactive"}
{"molecule": "Cc1c2ccccc2c(C)c2c1ccc1ccccc12", "AC50": "inactive"}
{"molecule": "O=CCCCC=O", "AC50": "inactive"}
{"molecule": "Cc1cccc2ccccc12", "AC50": "inactive"}
{"molecule": "CCCCCCCC[Si](OCC)(OCC)OCC", "AC50": "inactive"}

Please look up its AC50: OC12N=C(c3ccccc3)SC1Cc1cc(Cl)ccc12 (stereo unspecified)
inactive

Please look up its AC50: `CN(C)c1ccc(C(=C2C=CC(=[N+](C)C)C=C2)c2ccc(N(C)C)cc2)cc1`
1.54 µM (active)

Please look up its AC50: `CC1=CC(=O)/C(=C(/C)O)C(=O)O1`
inactive

Please look up its AC50: `COc1cc(C(=O)NC2CCN(C)CC2)ccc1Nc1ncc2c(n1)N(C1CCCC1)CC(F)(F)C(=O)N2C`
24.2 µM (active)

Please look up its AC50: CN1C(=O)N(c2ccccc2Br)Cc2cnc(Nc3ccc4c(c3)OCC(CO)O4)nc21 (stereo unspecified)
13.6 µM (active)

Please look up its AC50: `O=C1c2ccccc2C(=O)N1CCc1noc(-c2ccc(CN3CCCCCC3)s2)n1`
inactive

Please look up its AC50: `C[C@]12CC[C@@H]3c4ccc(O)cc4CC[C@H]3[C@@H]1CC[C@H]2O`
inactive

Please look up its AC50: `Clc1cc(Cl)c2c(c1)N=C1CCCCCN1C2`
inactive

Please look up its AC50: `Cc1ccc2oc(CN(Cc3ccccc3)C(=O)Nc3c(F)cc(F)cc3F)c(-c3ccc(Cl)cc3)c2c1`
inactive

Please look up its AC50: `O=c1[nH]sc2ccccc12`
11.3 µM (active)

----------
- Read-out: Transforming Growth Factor (TGFA), TGFA (gene 7039)
- protocol: LTEA_HepaRG_TGFA: Life Technologies and Expression Analysis (LTEA) Assay for Transforming Growth Factor (TGFA) using HepaRG (AID 2283532)
- conditions.used: mRNA level, 48 h; actives raise or lower the signal
- Description: LTEA_HepaRG is a cell based, multiplexed-readout assay that uses HepaRG, a human liver cell line, with measurements taken at 48 hours after chemical dosing on a 96-well plate.LTEA_HepaRG_TGFA is one of 102 assay component(s) measured in the LTEA HepaRG cell culture assay. It is a marker of Cell proliferation, survival, death.Data from the assay component LTEA_HepaRG_TGFA was analyzed into 1 endpoint. […]
Calls of active or inactive are those of the source. How the source made its calls: active means hit-call score of the fitted dose curve at least 0.9, where 1 is the maximum; inactive means score below 0.9.
Pick one: active, inactive

Worked examples, 2 compounds total:
{"compound": "CC(O)CC(C)(C)O (stereo unspecified)", "cat": "inactive"}
{"compound": "Cc1cn([C@H]2C[C@H](N=[N+]=[N-])[C@@H](CO)O2)c(=O)[nH]c1=O", "cat": "inactive"}

Kindly provide the recorded test outcome for the following compound: `C[C@]12CC[C@@H]3c4ccc(O)cc4CC[C@H]3[C@@H]1CC[C@H]2O`
inactive

Kindly provide the recorded test outcome for the following compound: `CC(C)(C)c1cc(/C=C2\SC(N)=NC2=O)cc(C(C)(C)C)c1O`
active

Kindly provide the recorded test outcome for the following compound: `c1ccc(C[n+]2cccc3ccccc32)cc1`
active

Kindly provide the recorded test outcome for the following compound: `CC(C)(C)c1csc(-c2cc3cc(OCc4ccccc4CC(=O)O)ccc3o2)n1`
active

Kindly provide the recorded test outcome for the following compound: `CCCCCCCCOC(=O)c1cc(O)c(O)c(O)c1`
inactive
